These data points were gathered from patent US8952024B2.

tested on: velvetleaf (Abutilon theophrasti); test: Test B pre-/postemergence plant response; type: in vivo; settings: Preemergence, 31 g ai/ha; scale 0 to 100 (0 no effect, 100 complete control)
property_label: Plant response rating, Velvetleaf
Lab note: jot down the number only; don't add units.

Worked cases, answers included:
[
  {
    "chemical_smiles": "O=C1CCCC(O)=C1C(=O)c1cnc(-c2ccccc2)n(-c2cccc(Br)c2)c1=O",
    "target_desc": "velvetleaf (Abutilon theophrasti)",
    "property_label": "Plant response rating, Velvetleaf",
    "observed_measurement": 55
  },
  {
    "chemical_smiles": "CCCCc1ncc(C(=O)C2=C(O)CCCC2=O)c(=O)n1-c1ccccc1",
    "target_desc": "velvetleaf (Abutilon theophrasti)",
    "property_label": "Plant response rating, Velvetleaf",
    "observed_measurement": 75
  },
  {
    "chemical_smiles": "Cn1c(-c2ccccc2)ncc(C(=O)C2=C(O)CCCC2=O)c1=O",
    "target_desc": "velvetleaf (Abutilon theophrasti)",
    "property_label": "Plant response rating, Velvetleaf",
    "observed_measurement": 75
  }
]

// output Plant response rating, Velvetleaf; input `Cc1cc(-n2c(-c3ccccc3)ncc(C(=O)C3=C(O)CCCC3=O)c2=O)ccc1F` ; system velvetleaf (Abutilon theophrasti)
80

// output Plant response rating, Velvetleaf; input `CCc1ccccc1-n1c(-c2ccccc2)ncc(C(=O)C2=C(O)CCCC2=O)c1=O` ; system velvetleaf (Abutilon theophrasti)
80

// output Plant response rating, Velvetleaf; input `Cc1c(Cl)cccc1-n1c(-c2ccccc2)ncc(C(=O)C2=C(O)CCCC2=O)c1=O` ; system velvetleaf (Abutilon theophrasti)
80
